Tested on: ATP;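 note: ATP exposure 15 min at 22 °C before imaging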
test_summary: switch fluorescence ratio, 500 uM ATP over buffer (Cy3 cluster intensity, sum of 5 cycles each) (fold (ratio)); higher = stronger signal-on switching upon ATP binding; sequences stand for … in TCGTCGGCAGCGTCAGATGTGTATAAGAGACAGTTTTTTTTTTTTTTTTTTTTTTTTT…TC
test_parameters: aptamer strand: ATP DNA aptamer (quencher-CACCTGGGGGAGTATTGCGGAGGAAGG + anchor), 100 nM annealed; ATP concentration: 500 uM
// NOT MET strictly below 1 in switch fluorescence ratio; MET otherwise

Field: example entries. Status: answers known.
ATTATAACTC NOT MET
GCTTCTACAG MET

Prompt: Does the sequence `TATCGCAATG` have recorded switch fluorescence ratio that is 1 or more?
Response: MET

Prompt: Does the sequence `CATTCGCCTC` have recorded switch fluorescence ratio that is 1 or more?
Response: MET

Prompt: Does the sequence `CAGTTATAAT` have recorded switch fluorescence ratio that is 1 or more?
Response: MET

Prompt: Does the sequence `TCGGCGGGGA` have recorded switch fluorescence ratio that is 1 or more?
Response: MET

Prompt: Does the sequence `TTCCGGGGTT` have recorded switch fluorescence ratio that is 1 or more?
Response: MET

Prompt: Does the sequence `TTTGATTTGC` have recorded switch fluorescence ratio that is 1 or more?
Response: NOT MET

====

System: ATP;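 note: ATP exposure 15 min at 22 °C before imaging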
test_summary: switch fluorescence ratio, 500 uM ATP over buffer (Cy3 cluster intensity, sum of 5 cycles each) (fold (ratio)); higher = stronger signal-on switching upon ATP binding; sequences stand for … in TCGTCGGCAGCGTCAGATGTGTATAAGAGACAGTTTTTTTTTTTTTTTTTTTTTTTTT…TC
test_parameters: aptamer strand: ATP DNA aptamer (quencher-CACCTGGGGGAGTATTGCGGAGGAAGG + anchor), 100 nM annealed; ATP concentration: 500 uM
Entries and their switch fluorescence ratio

GGGGATAAGC 0.992

Prompt: Fill in the blank: the reported switch fluorescence ratio of `TTTTTAATGT` is ____.
Response: 0.998

Prompt: Fill in the blank: the reported switch fluorescence ratio of `ATAAATGGGC` is ____.
Response: 0.972

Prompt: Fill in the blank: the reported switch fluorescence ratio of `CTCGGCGCTT` is ____.
Response: 1.05

====

Tested on: ATP;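 note: ATP exposure 15 min at 22 °C before imaging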
test_summary: switch fluorescence ratio, 500 uM ATP over buffer (Cy3 cluster intensity, sum of 5 cycles each) (fold (ratio)); higher = stronger signal-on switching upon ATP binding; sequences stand for … in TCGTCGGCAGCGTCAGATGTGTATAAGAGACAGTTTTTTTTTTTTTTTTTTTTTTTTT…TC
test_parameters: aptamer strand: ATP DNA aptamer (quencher-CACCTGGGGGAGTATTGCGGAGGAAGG + anchor), 100 nM annealed; ATP concentration: 500 uM
Entries and their switch fluorescence ratio
// response body must contain only the number

// worked examples, switch fluorescence ratio included
CGAAGCGGGG 1.08
CCATATGGGG 1.01
TATGGTCCTG 0.962
GAGTTTTGCG 1.03
TCGTTACAGG 1.05

With those in mind, consider the next sequence.
Prompt: Fill in the blank: the reported switch fluorescence ratio of `AACCGGGATC` is ____.
Response: 1.14

====

Entries and their switch fluorescence ratio
Tested on: ATP;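 note: ATP exposure 15 min at 22 °C before imaging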
test_summary: switch fluorescence ratio, 500 uM ATP over buffer (Cy3 cluster intensity, sum of 5 cycles each) (fold (ratio)); higher = stronger signal-on switching upon ATP binding; sequences stand for … in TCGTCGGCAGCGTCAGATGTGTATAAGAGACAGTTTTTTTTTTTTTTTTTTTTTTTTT…TC
test_parameters: aptamer strand: ATP DNA aptamer (quencher-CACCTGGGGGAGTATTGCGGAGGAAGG + anchor), 100 nM annealed; ATP concentration: 500 uM
// response body must contain only the number

GGGCAGGTAG 1.03
GCTGGGGCGT 0.985
GGAAAGAAGG 1
GGGGCATGAG 1.04
CCTCAGGGAA 1.2
GGCTTAATGG 1.01
GCTTGTTATG 0.993
GGGGGCCACT 0.975
AGATGTAGGC 1.03
AAATCTTAAA 0.992

Prompt: Fill in the blank: the reported switch fluorescence ratio of `GTGTATCACG` is ____.
Response: 1.01

Prompt: Fill in the blank: the reported switch fluorescence ratio of `ATAGTCCACC` is ____.
Response: 1.01

Prompt: Fill in the blank: the reported switch fluorescence ratio of `GATATATTGT` is ____.
Response: 0.993

Prompt: Fill in the blank: the reported switch fluorescence ratio of `TTAGGGGAGT` is ____.
Response: 1.02
